# PROTOCOL_TEXT: recombinant barcode read abundance after kanamycin selection (control-corrected) (log10(CPM+1)); higher = more efficient recombination; sequences stand for … in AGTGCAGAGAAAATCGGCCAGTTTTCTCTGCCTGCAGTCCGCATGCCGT…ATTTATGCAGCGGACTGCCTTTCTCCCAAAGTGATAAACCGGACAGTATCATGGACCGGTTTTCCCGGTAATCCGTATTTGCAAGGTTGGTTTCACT; site = the 11-nt target
# recombinant barcode read abundance (log10) listing for each entry below
// response body must contain only the number

According to the records, this sequence TAAGAATCTTGGGTTCTAACCTGTTGCCTAA [TAAGAATCTAG_LTGcore_CT_RTGcore_TT] (site TAAGAATCTAG) (LTG core: CT, RTG core: TT) displays recombinant barcode read abundance (log10) of 0.175

According to the records, this sequence AGTCTTAGGTGGGTTCTAACCTGTTGCCAAG [AGTCTTACTTG_LTGcore_GG_RTGcore_CT] (site AGTCTTACTTG) (LTG core: GG, RTG core: CT) displays recombinant barcode read abundance (log10) of 0

According to the records, this sequence GGGCGGAAATGGGTTCTAACCTGTTGCGGTT [GGGCGGACTCC_LTGcore_AA_RTGcore_AA] (site GGGCGGACTCC) (LTG core: AA, RTG core: AA) displays recombinant barcode read abundance (log10) of 0.428

According to the records, this sequence AGGCCTCTCTGGGTTCTAACCTGTTGCCTGA [AGGCCTCCTAG_LTGcore_TC_RTGcore_TC] (site AGGCCTCCTAG) (LTG core: TC, RTG core: TC) displays recombinant barcode read abundance (log10) of 0.047

According to the records, this sequence AAACATGGGTGGGTTCTAACCTGTTGCCTAG [AAACATGCTAG_LTGcore_GG_RTGcore_CT] (site AAACATGCTAG) (LTG core: GG, RTG core: CT) displays recombinant barcode read abundance (log10) of 0.427

According to the records, this sequence TAAGAATTTTGGGTTCTAACCTGTTGCCTAG [TAAGAATCTAG_LTGcore_TT_RTGcore_CT] (site TAAGAATCTAG) (LTG core: TT, RTG core: CT) displays recombinant barcode read abundance (log10) of 0.0485

According to the records, this sequence GGACACCCTTGGGTTCTAACCTGTTGCCTAG [GGACACCCTAG_LTGcore_CT_RTGcore_CT] (site GGACACCCTAG) (LTG core: CT, RTG core: CT) displays recombinant barcode read abundance (log10) of 2.43

According to the records, this sequence GAGTCCTGATGGGTTCTAACCTGTTGCCTTC [GAGTCCTCTAG_LTGcore_GA_RTGcore_GA] (site GAGTCCTCTAG) (LTG core: GA, RTG core: GA) displays recombinant barcode read abundance (log10) of 0.149

According to the records, this sequence ACGGGACCTTGGGTTCTAACCTGTTGCAGCC [ACGGGACCTCT_LTGcore_CT_RTGcore_GG] (site ACGGGACCTCT) (LTG core: CT, RTG core: GG) displays recombinant barcode read abundance (log10) of 1.11

According to the records, this sequence GGACACCAGTGGGTTCTAACCTGTTGCCTCT [GGACACCCTAG_LTGcore_AG_RTGcore_AG] (site GGACACCCTAG) (LTG core: AG, RTG core: AG) displays recombinant barcode read abundance (log10) of 0.0138

According to the records, this sequence AAACACAGTTGGGTTCTAACCTGTTGCCTAG [AAACACACTAG_LTGcore_GT_RTGcore_CT] (site AAACACACTAG) (LTG core: GT, RTG core: CT) displays recombinant barcode read abundance (log10) of 0.804

According to the records, this sequence GAGTCCTGATGGGTTCTAACCTGTTGCCTAG [GAGTCCTCTAG_LTGcore_GA_RTGcore_CT] (site GAGTCCTCTAG) (LTG core: GA, RTG core: CT) displays recombinant barcode read abundance (log10) of 0.62

According to the records, this sequence GGACACCCTTGGGTTCTAACCTGTTGCCTAC [GGACACCCTAG_LTGcore_CT_RTGcore_GT] (site GGACACCCTAG) (LTG core: CT, RTG core: GT) displays recombinant barcode read abundance (log10) of 1.33

According to the records, this sequence TAAGAATAGTGGGTTCTAACCTGTTGCCTCT [TAAGAATCTAG_LTGcore_AG_RTGcore_AG] (site TAAGAATCTAG) (LTG core: AG, RTG core: AG) displays recombinant barcode read abundance (log10) of 0.0922

According to the records, this sequence AAACACATCTGGGTTCTAACCTGTTGCCTAG [AAACACACTAG_LTGcore_TC_RTGcore_CT] (site AAACACACTAG) (LTG core: TC, RTG core: CT) displays recombinant barcode read abundance (log10) of 0.222

According to the records, this sequence GAGCCCAAGTGGGTTCTAACCTGTTGCCTAG [GAGCCCACTAG_LTGcore_AG_RTGcore_CT] (site GAGCCCACTAG) (LTG core: AG, RTG core: CT) displays recombinant barcode read abundance (log10) of 0.0502

According to the records, this sequence CGAGCCCGGTGGGTTCTAACCTGTTGCTGAG [CGAGCCCCTCA_LTGcore_GG_RTGcore_CT] (site CGAGCCCCTCA) (LTG core: GG, RTG core: CT) displays recombinant barcode read abundance (log10) of 0.223

According to the records, this sequence AAACAGTCTTGGGTTCTAACCTGTTGCCTAA [AAACAGTCTAG_LTGcore_CT_RTGcore_TT] (site AAACAGTCTAG) (LTG core: CT, RTG core: TT) displays recombinant barcode read abundance (log10) of 1.55
